In this section we review reported MIC values for a set of compounds.
# Tested on: Micrococcus luteus
# assay_remarks: Antimicrobial activity against Micrococcus luteus assessed as reduction in bacterial growth after 20 hrs by […]
# Assay type: functional
Non-standard residues stand in square brackets, D forms with d. Residues, ends and D or L forms follow the SMILES beside them. ξ: configuration not given here. ξNle = CCCCC(N)C(=O)O

Worked examples follow.
compound: CCCCC(NC(=O)[C@H](CC(C)C)NC(=O)[C@H](CO)NC(=O)[C@H](CO)NC(=O)C(CCCC)NC(=O)[C@@H](NC(=O)CN)[C@@H](C)CC)C(=O)N[C@@H](CCCCN)C(=O)N[C@@H](CCCCN)C(=O)N[C@@H](CC(C)C)C(=O)N[C@@H](CCCCN)C(=O)N[C@@H](CCCCN)C(=O)N[C@H](C(=O)N[C@H](C(=O)N[C@@H](C)C(N)=O)[C@@H](C)CC)[C@@H](C)CC (stereo partly drawn) (H-GI[ξNle]SSL[ξNle]KKLKKIIA-NH2)
measured_value: ≤ 3 µM
//
compound: CC[C@@H](C)[C@@H](NC(=O)CN)C(=O)N[C@H](CCSC)C(=O)N[C@H](CO)C(=O)N[C@H](CO)C(=O)N[C@H](CC(C)C)C(=O)N[C@H](CCSC)C(=O)N[C@H](CCCCN)C(=O)N[C@H](CCCCN)C(=O)N[C@H](CC(C)C)C(=O)N[C@H](CCCCN)C(=O)N[C@H](CCCCN)C(=O)N[C@@H](C(=O)N[C@@H](C(=O)N[C@H](C)C(=O)N[C@H](CCCCN)C(N)=O)[C@H](C)CC)[C@H](C)CC (H-G[dI][dM][dS][dS][dL][dM][dK][dK][dL][dK][dK][dI][dI][dA][dK]-NH2)
measured_value: ≤ 3 µM

API: the following record is the query input.
Suppose we examine the compound CC[C@@H](C)[C@@H](NC(=O)CN)C(=O)N[C@H](CC(C)C)C(=O)N[C@H](CO)C(=O)N[C@H](CO)C(=O)N[C@H](CC(C)C)C(=O)N[C@H](Cc1c[nH]c2ccccc12)C(=O)N[C@H](CCCCN)C(=O)N[C@H](CCCCN)C(=O)N[C@H](CC(C)C)C(=O)N[C@H](CCCCN)C(=O)N[C@H](CCCCN)C(=O)N[C@@H](C(=O)N[C@@H](C(=O)N[C@H](C)C(=O)N[C@H](CCCCN)C(N)=O)[C@H](C)CC)[C@H](C)CC (H-G[dI][dL][dS][dS][dL][dW][dK][dK][dL][dK][dK][dI][dI][dA][dK]-NH2) ; what MIC value has been reported?
≤ 3 µM

Data origin: ChEMBL document CHEMBL4477183
